molecular target: GlcNAc(b1-3)Gal(b1-4)GlcNAc(b1-3)Gal(b1-4)GlcNAc(b1-3)Gal(b1-4)GlcNAc(b1-3)Gal(b1-4)GlcNAc(b1-2)[GlcNAc(b1-3)Gal(b1-4)GlcNAc(b1-3)Gal(b1-4)GlcNAc(b1-3)Gal(b1-4)GlcNAc(b1-3)Gal(b1-4)GlcNAc(b1-6)]Man(a1-6)[GlcNAc(b1-3)Gal(b1-4)GlcNAc(b1-3)Gal(b1-4)GlcNAc(b1-3)Gal(b1-4)GlcNAc(b1-3)Gal(b1-4)GlcNAc(b1-2)Man(a1-3)]Man(b1-4)GlcNAc(b1-4)[Fuc(a1-6)]GlcNAc; experiment: glycan array binding signal (z-score within array); higher = stronger binding; settings: glycan notation: IUPAC condensed, linker removed
The full list was thinned out, with the strongest signals kept by preference.
Collected glycan array binding signal (z-score) values appear next to each entry.
Lab note: jot down the number only; don't add units.

- binder: "BIp1-His (Cryptococcus neoformans) (protein) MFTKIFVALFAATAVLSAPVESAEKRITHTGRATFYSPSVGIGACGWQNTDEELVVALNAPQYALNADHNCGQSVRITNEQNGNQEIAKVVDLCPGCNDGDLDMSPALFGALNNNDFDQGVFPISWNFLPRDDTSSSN"
  glycan array binding signal (z-score): 0.882
- binder: "LlpA (Burkholderia cenocepacia) (protein) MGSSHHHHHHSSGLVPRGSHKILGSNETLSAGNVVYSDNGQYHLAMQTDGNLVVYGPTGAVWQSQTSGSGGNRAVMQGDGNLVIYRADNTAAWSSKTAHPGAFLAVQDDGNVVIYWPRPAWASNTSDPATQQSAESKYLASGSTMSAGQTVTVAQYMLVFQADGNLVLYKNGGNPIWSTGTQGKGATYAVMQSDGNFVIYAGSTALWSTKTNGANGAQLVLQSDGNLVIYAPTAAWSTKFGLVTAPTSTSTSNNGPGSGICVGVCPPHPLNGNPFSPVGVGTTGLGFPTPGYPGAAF"
  glycan array binding signal (z-score): 1.97

Now turn to the next binder.
I'd like to know its glycan array binding signal (z-score). The binder in question is SSR2 (Sclerotium rolfsii) (protein) MVYKITVRVYQTNPDAFFHPVEKTVWKYANGGTWSITDDQHVLTMGGSGTSGTLRFHADNGESFTATFGVHNYKRWCDIVTNLAADETGMVINQQYYSQKNREEARERQLSNYQVKNAKGRNFQIVYTEAEGNDLHANLIIG 1.3
